Data origin, for the record: ChEMBL document CHEMBL5360622

pIC50: −log10 of the molar value.
The next entries give measured pIC50 for Dual specificity protein kinase CLK3 (Homo sapiens).
recorded-metric: pIC50

• CC(C)C[C@H](COCc1ccccc1)NC1=N/C(=C\c2ccc3ncsc3c2)C(=O)N1 = 5.24
• Cn1ncc2cc(/C=C3\N=C(NC4CCCCCC4)NC3=O)ccc21 = 6.42
• O=C1NC(N[C@@H](CO)CC2CC2)=N/C1=C\c1ccc2ncsc2c1 = 6.16
• O=C1NC(NCCc2ccccn2)=N/C1=C\c1ccc2ncsc2c1 = 6.16
• CN1CCN(c2ccc(NC3=N/C(=C\c4ccc5c(c4)OCCO5)C(=O)N3)cc2)CC1 = 5.96
• O=C1NC(N[C@@H](CO)CC2CCCC2)=N/C1=C\c1ccc2ncsc2c1 = 5.84
• CC(C)C[C@H](CO)NC1=N/C(=C\c2ccc3ncsc3c2)C(=O)N1 = 6.32
• CC(C)C[C@H](CF)NC1=N/C(=C\c2ccc3ncsc3c2)C(=O)N1 = 6.39
• CO[C@@H]1Cc2ccccc2[C@H]1NC1=N/C(=C\c2ccc3ncsc3c2)C(=O)N1 (racemic) = 6.07
• COC[C@@H](NC1=N/C(=C\c2ccc3ncsc3c2)C(=O)N1)c1ccccc1 = 6.35
• O=C1NC(NCC2CCOCC2)=N/C1=C\c1ccc2ncsc2c1 = 6.16
• Cc1csc(CNC2=N/C(=C\c3ccc4ncsc4c3)C(=O)N2)n1 = 6.42
• O=C1NC(NC2C3CC4CC(C3)CC2C4)=N/C1=C\c1ccc2ncsc2c1 (stereo unspecified) = 5.92
• Cn1ccc(NC2=N/C(=C\c3ccc4ncsc4c3)C(=O)N2)n1 = 6.70
• COC[C@H](NC1=N/C(=C\c2ccc3ncsc3c2)C(=O)N1)c1ccccc1 = 6.90
• O=C1NC(NC(CF)c2ccccc2)=N/C1=C\c1ccc2ncsc2c1 (racemic) = 6.53
• CC(C)C[C@@H](CO)NC1=N/C(=C\c2ccc3ncsc3c2)C(=O)N1 = 6.26
• O=C1NC(N[C@H]2CN3CCC2CC3)=N/C1=C\c1ccc2ncsc2c1 = 5.76
• COC(=O)[C@@H](CC(C)C)NC1=N/C(=C\c2ccc3ncsc3c2)C(=O)N1 = 6.07
• CO[C@@H]1CCCC[C@H]1NC1=N/C(=C\c2ccc3ncsc3c2)C(=O)N1 = 6.42
• O=C1NC(NC23CC4CC(CC(C4)C2)C3)=N/C1=C\c1ccc2ncoc2c1 = 5.07
• Cn1ncc2cc(/C=C3\N=C(NC4CCCCC4)NC3=O)ccc21 = 5.77
• Cc1nc2ccc(/C=C3\N=C(NC4CCCCC4)NC3=O)cc2s1 = 5.30
• O=C1NC(NC23CC4CC(CC(O)(C4)C2)C3)=N/C1=C\c1ccc2ncsc2c1 = 6.67
• O=C1NC(NC2CCOCC2)=N/C1=C\c1ccc2ncsc2c1 = 5.89
• CN1CCC2(CC1)CC(NC1=N/C(=C\c3ccc4ncsc4c3)C(=O)N1)C2 = 5.13
• COC(=O)[C@H](CC(C)C)NC1=N/C(=C\c2ccc3ncsc3c2)C(=O)N1 = 5.77
• CN1CCC(NC2=N/C(=C\c3ccc4ncsc4c3)C(=O)N2)CC1 = 5.41
• Cn1cc2cc(/C=C3\N=C(NC4CCCCCC4)NC3=O)ccc2n1 = 5.85
• COC12CC3CC(CC(NC4=N/C(=C\c5ccc6ncsc6c5)C(=O)N4)(C3)C1)C2 = 6.55
• O=C1NC(N[C@@H]2CN3CCC2CC3)=N/C1=C\c1ccc2ncsc2c1 = 5.36
• CN1CCCC(NC2=N/C(=C\c3ccc4ncsc4c3)C(=O)N2)C1 (racemic) = 5.91
• O=C1NC(NCC(O)Cc2ccccc2)=N/C1=C\c1ccc2ncsc2c1 (racemic) = 6.33
• COC(=O)[C@@H](NC1=N/C(=C\c2ccc3ncsc3c2)C(=O)N1)C(C)C = 6.10
• O=C1NC(NC(CO)C2CCCCC2)=N/C1=C\c1ccc2ncsc2c1 (racemic) = 5.96
• O=C1NC(NC2CCNC2=O)=N/C1=C\c1ccc2ncsc2c1 (racemic) = 5.94
• O=C1NC(NC2CCCCCC2)=N/C1=C\c1ccc2[nH]ncc2c1 = 6.58
• CC(=O)N1CCc2ccc(NC3=N/C(=C\c4ccc5ncsc5c4)C(=O)N3)cc21 = 5.65
• CN1CCC(NC2=N/C(=C\c3ccc4ncsc4c3)C(=O)N2)C1=O (racemic) = 5.57
• O=C1NC(Nc2cccc(C(F)(F)F)c2)=N/C1=C\c1ccc2ncsc2c1 = 5.15
